Biological target: Epidermal growth factor receptor and ErbB2 (HER1 and HER2) (Homo sapiens) (UniProt P04626+P00533)
Assay: Selectivity for erbB2 over EGFR
Format: protein assay
Exam item: assign label 1 to entries whose Selectivity ratio is below 70 and label 0 to entries at or above 70. Note that a value of exactly 70 receives label 0.

Is 70 strictly greater than the compound's reported Selectivity ratio? compound: `COc1ccc2ncnc(Nc3ccc(OC4CCN(C(=O)Nc5c(F)cccc5F)CC4)c(C)c3)c2c1`
label 1

Item: `COCCOc1cc2ncnc(Nc3ccc(OC4CCN(C(=O)CC(C)(C)C)CC4)c(C)c3)c2cc1OCCOC`
label 1

One more compound: `Cc1cc(Nc2ncnc3cnc(N4CCOCC4)cc23)ccc1Oc1ccc(C(=O)NCC(C)(C)C)cc1`
label 0

Same question, `COCC(=O)NCC#Cc1ccc2ncnc(Nc3ccc(Oc4cccc(C(=O)NCC(C)(C)C)c4)c(C)c3)c2c1` this time
label 0

What would you report for `COc1cc2ncnc(Nc3ccc(OC4CCN(C(=O)Nc5c(F)cccc5F)CC4)c(C)c3)c2cc1OC` ?
label 1

Same thing, different compound: `Cc1cc(Nc2ncnc3ccc(OCCCN4CCOCC4)cc23)ccc1OC1CCN(C(=O)Nc2c(F)cccc2F)CC1`
label 1

Follow-up entry: `COCC(=O)NCC#Cc1ccc2ncnc(Nc3ccc(Oc4cccc(C(=O)NC(C)(C)C)c4)c(C)c3)c2c1`
label 0
